# System: LNCaP human prostate cancer cells
# Test description: SRB cytotoxicity assay, LNCaP
# Format: cell-based
# Condition details: Homo sapiens, LNCaP; Table 3; 96 h; read-out: IC50 LNCaP
Counter-ions that a name gives are not always drawn.
Binarize IC50 at 2000 nM; below is true (1), at or above is false (0).

Use the examples below as a reference point.
{"Compound": "CCCCCCCCCCCCCCCCCCNC(=O)[C@@H]1CSC(c2cc(OC)c(OC)c(OC)c2)N1 (mixture of isomers) [Compound 17-HCI, Hydrochloride]", "Category": "true (1)"}
{"Compound": "CCCCCCCCCCCCCCCCCCNC(=O)[C@@H]1CSC(c2cccnc2)N1 (mixture of isomers)", "Category": "false (0)"}
{"Compound": "CCCCCCCCCCCCCCCCCCNC(=O)[C@@H]1CSC(C2CCCCC2)N1 (mixture of isomers)", "Category": "false (0)"}
{"Compound": "CCCCCCCCCCCCCCCCCCNC(=O)[C@@H]1CSC(c2ccc(OC)cc2)N1 (mixture of isomers) [Compound 15-HCI, Hydrochloride]", "Category": "false (0)"}

I wonder whether CCCCCCCCCCCCCCCCCCNC(=O)[C@@H]1CSC(c2c[nH]c3ccccc23)N1 (mixture of isomers) has IC50 below 2000 nM. Can you tell?
false (0)

Would you mind doing CCCCCCCCCCCCCCCCCCNC(=O)[C@@H]1CSC(CCCCCCCCCCCC)N1 (mixture of isomers) as well?
false (0)

Another compound to look at: CCCCCCCCCCCCCCCCCCNC(=O)[C@@H]1CSC(Cc2ccccc2)N1 (mixture of isomers)
false (0)

Now consider Cl.O=C(O)[C@@H]1CSC(c2ccoc2)N1 (mixture of isomers) [Compound 12-HCI, Hydrochloride] .
true (1)

Quick one: CCCCCCCCCCCCCCCCCCNC(=O)[C@@H]1CSC(c2ccc(N(C)C)cc2)N1 (mixture of isomers)
true (1)

----------
# System: SKOv-3 human ovarian cancer cell line
# Test description: SRB cytotoxicity assay, SKOv-3
# Assay type: cell-based
# Condition details: Table 8
Structures can show the parent of a compound that is named as a salt.
Measurement label: IC50 (µM)
Answers are plain numbers, in µM.

Give SKOv-3 human ovarian cancer cell line IC50 for CCCCCCCCCCCCCCCCCCNC(=O)[C@@H]1CSC(c2ccc(OC)c(OC)c2)N1 (mixture of isomers) [Compound 16-HCI, Hydrochloride]
3.6

----------
# Tested on: DU-145 human prostate cancer cells
# Test description: SRB cytotoxicity assay, DU-145
# Type: cell-based
# Condition details: read-out: IC50 DU-145; Table 6
Measurement label: IC50

For the compound shown here, COc1ccc(CCNC(=O)CN2C(=O)CSC2c2ccccc2)c(OC)c1 (stereo not shown) , give the reported IC50.
> 100 µM

----------
Consider the following compounds; for each one, report its IC50.
# Tested on: LNCaP human prostate cancer cells
# Test description: SRB cytotoxicity assay, LNCaP
# Assay type: cell-based
# Condition details: Homo sapiens, LNCaP; Table 4; 96 h; read-out: IC50 LNCaP
Numbers only, in µM.

{"Compound": "CCCCCCCCCCCCCCCCCCNC(=O)[C@@H]1CSC(c2cc(F)cc(F)c2)N1 (mixture of isomers) [Compound 23]", "Assay target": "LNCaP human prostate cancer cells", "Reading unit": "µM", "Endpoint result": 11.2}
{"Compound": "CCCCCCCCCCCCCCCCCCNC(=O)[C@@H]1CSC(c2ccc(NC(C)=O)cc2)N1.Cl (mixture of isomers) [Compound 18-HCI, Hydrochloride]", "Assay target": "LNCaP human prostate cancer cells", "Reading unit": "µM", "Endpoint result": 1.3}
{"Compound": "CCCCCCCCCCCCCCCCCCNC(=O)[C@@H]1CSC(c2ccc([N+](=O)[O-])cc2)N1 (mixture of isomers) [Compound 21]", "Assay target": "LNCaP human prostate cancer cells", "Reading unit": "µM", "Endpoint result": 8.4}
{"Compound": "CCCCCCCCCCCCCCCCCCNC(=O)[C@@H]1CSC(c2ccc(Br)cc2)N1 (mixture of isomers) [Compound 20]", "Assay target": "LNCaP human prostate cancer cells", "Reading unit": "µM", "Endpoint result": 5.1}

Let's switch to this compound now.
Param readout = IC50; param system = LNCaP human prostate cancer cells; param query = CCCCCCCCCCCCCCCCCCNC(=O)[C@@H]1CSC(c2ccc(F)cc2)N1 (mixture of isomers) [Compound 19] ; response: value
1.9

----------
# System: human breast cancer cell line (MCF-7)
# Test description: SRB cytotoxicity assay, MCF-7
# Format: cell-based
# Condition details: Homo sapiens, MCF7; Example 10 table; 96 h; read-out: IC50 MCF-7
Structures can show the parent of a compound that is named as a salt.
Measurement label: pIC50
One number for each entry, as −log10 of the molar value.

{"Compound": "CCCCCCCCCCCCCCCCCCNC(=O)[C@H]1CSC(c2ccccc2)N1 (stereo partly drawn) [5-HCI (S)]", "pIC50": 5.13}
{"Compound": "CCCCCCCCCCCCCCCCCCCCNC[C@@H](N)CO", "pIC50": 5.34}
{"Compound": "CCCCCCCCCCCCCCCCCCNC(=O)[C@@H]1CSC(c2ccccc2)N1.Cl (mixture of isomers) [Compound 5-HCI, Hydrochloride]", "pIC50": 5.38}
{"Compound": "CCCCCCCCCCCCCCNC(=O)[C@@H]1CSC(c2ccccc2)N1.Cl (mixture of isomers) [Compound 4-HCI, Hydrochloride]", "pIC50": 5.38}

Then this compound:
Value lookup for pIC50; key = CCCCCCCNC(=O)[C@@H]1CSC(c2ccccc2)N1 (mixture of isomers) [Compound 3-HCI, Hydrochloride]
4.30

----------
Give pIC50 for every item shown.
# System: LNCaP human prostate cancer cells
# Test description: SRB cytotoxicity assay, LNCaP
# Format: cell-based
# Condition details: Homo sapiens, LNCaP; Table 4; 96 h; read-out: IC50 LNCaP
Answers are plain numbers, as −log10 of the molar value.

{"Molecule": "CCCCCCCCCCCCCCCCCCNC(=O)[C@@H]1CSC(c2ccc(C)cc2)N1 (mixture of isomers) [Compound 26]", "pIC50": 5.72}
{"Molecule": "CCCCCCCCCCCCCCCCCCNC(=O)[C@@H]1CSC(c2ccccc2)N1C(C)=O (mixture of isomers) [Compound 28]", "pIC50": 4.79}

Quick batch: pIC50 for everything below.
1. CCCCCCCCCCCCCCCCCCNC(=O)[C@@H]1CSC(c2c(Cl)cccc2Cl)N1 (mixture of isomers) [Compound 24]
2. CCCCCCCCCCCCCCCCCCNC(=O)[C@@H]1CSC(c2ccc(F)c(Br)c2)N1 (mixture of isomers) [Compound 25]

1: 4.88; 2: 5.52

----------
# Tested on: SKOv-3 human ovarian cancer cell line
# Test description: SRB cytotoxicity assay, SKOv-3
# Type: cell-based
# Condition details: Homo sapiens, SK-OV-3; Table 8
Where a name gives a salt, the structure may show the parent alone.
Measurement label: IC50 (µM)
One number for each entry, in µM.

Consider the following items and state reported IC50 for each.
1. CCCCCCCCCCCCCCNC(=O)[C@@H]1CSC(c2ccccc2)N1.Cl (mixture of isomers) [Compound 4-HCI, Hydrochloride]
2. CCCCCCCCCCCCCCCCCCNC(=O)[C@@H]1CSC(c2ccccc2)N1.Cl (mixture of isomers) [Compound 5-HCI, Hydrochloride]
3. CCCCCCCCCCCCCCCCCCNC(=O)[C@H]1CSC(c2ccccc2)N1 (stereo partly drawn) [5-HCI (S)]
4. CCCCCCCCCCCCCCCCCCNC(=O)[C@@H]1CSC(c2cc(OC)c(OC)c(OC)c2)N1 (mixture of isomers) [Compound 17-HCI, Hydrochloride]

2.1
8.5
18
2.7

----------
# Test system: PC-3 human prostate cancer cells
# Test description: SRB cytotoxicity assay, PC-3
# Type: cell-based
# Condition details: Homo sapiens; Table 3; 96 h; read-out: IC50 PC-3
Measurement label: pIC50
Answers are plain numbers, as −log10 of the molar value.

Below is a list of compounds. For each, state its recorded pIC50.
1. CCCCCCCCCCCCCCCCCCNC(=O)[C@@H]1CSC(c2c[nH]c3ccccc23)N1 (mixture of isomers)
2. Cl.O=C(O)[C@@H]1CSC(c2ccoc2)N1 (mixture of isomers) [Compound 12-HCI, Hydrochloride]
3. CCCCCCCCCCCCCCCCCCNC(=O)[C@@H]1CSC(c2cccnc2)N1 (mixture of isomers)

4.94
5.09
5.04
